Quick reference: pIC50 of the listed items.
- targetEntity: PAC1 (endogenous, mainly PAC1null, SH-SY5Y) (Homo sapiens, UniProt P41586)
- Construct: Neuroblastoma SH-SY5Y cells endogenously xpressing hPAC1 and engineered to express CBS; endogenous in cells
- Sequence (P41586 21-468): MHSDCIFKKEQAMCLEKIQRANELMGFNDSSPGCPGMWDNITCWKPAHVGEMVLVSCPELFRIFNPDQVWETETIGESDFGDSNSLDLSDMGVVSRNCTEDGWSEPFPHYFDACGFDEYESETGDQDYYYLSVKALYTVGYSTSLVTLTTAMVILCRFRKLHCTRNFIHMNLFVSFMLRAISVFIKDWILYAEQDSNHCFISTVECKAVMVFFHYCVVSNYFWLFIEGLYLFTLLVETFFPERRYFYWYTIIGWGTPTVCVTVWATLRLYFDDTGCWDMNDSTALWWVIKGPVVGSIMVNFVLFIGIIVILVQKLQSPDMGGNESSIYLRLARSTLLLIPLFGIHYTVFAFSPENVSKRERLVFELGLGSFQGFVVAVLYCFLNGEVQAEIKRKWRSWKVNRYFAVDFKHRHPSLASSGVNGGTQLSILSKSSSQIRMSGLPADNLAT
- test: Direct cAMP ELISA, antagonism of P38 in SY5Y_CBS cells
- Format: cell-based
- cond: 1 nM P38, average of two independent experiments; read-out: IC50 Average in ELISA assay
No end group written: not given here.
// returns pIC50 (minus log10 of molar concentration), number only

Sample records with pIC50:
{"columns": ["substance", "readoutName", "reported"],
 "data": [
  ["FTDSYSRYRKQMAVKKYLAAVL-NH2 [P6-27]", "pIC50", 5.48],
  ["FTDSYSRYRKQMAVKKYLAAVLGK-NH2 [P6-29]", "pIC50", 5.90]
]}

Could you now look at the following substance, please?
## Task // fetch pIC50; item: FTDSYSRYRKQMAVKKYLAAVLGKR-NH2 [P6-30] ; system: PAC1 (endogenous, mainly PAC1null, SH-SY5Y) (Homo sapiens, UniProt P41586)
## Result 6.76

Origin of the recorded values: paper doi:10.1101/2025.04.16.649181
